Test system: TNBC cell line MDA-MB-231
Experiment: CCK-8 assay, antiproliferative activity against MDA-MB-231
Details: Homo sapiens, MDA-MB-231, 72 h, read-out: IC50 MDA-MB-231
pIC50: −log10 of the molar value.

{"compound": "O=CN[C@@H](Cc1ccc(N(CCCl)CCCl)cc1)C(=O)O [Compound 6, formylmerphalan, reference compound]", "operator": "<", "pIC50": 4.70}
{"compound": "Cc1ccc2occ(CNC(=O)c3ccc(N(CCCl)CCCl)cc3)c(=O)c2c1 [Compound 21a]", "operator": "=", "pIC50": 4.83}
{"compound": "CC(C)(C)OC(=O)N[C@@H](Cc1ccc(N(CCCl)CCCl)cc1)C(=O)O [Compound 7, Boc-protected melphalan, reference compound]", "operator": "<", "pIC50": 4.70}
{"compound": "COc1ccc2occ(COC(=O)[C@H](Cc3ccc(N(CCCl)CCCl)cc3)NC(=O)OC(C)(C)C)c(=O)c2c1 [Compound 18c]", "operator": "=", "pIC50": 4.78}
